Below, each entry is listed with its recorded inhibition at 50 µM.
Biological target: UniProtKB P10635
Sequence (P10635 whole entry): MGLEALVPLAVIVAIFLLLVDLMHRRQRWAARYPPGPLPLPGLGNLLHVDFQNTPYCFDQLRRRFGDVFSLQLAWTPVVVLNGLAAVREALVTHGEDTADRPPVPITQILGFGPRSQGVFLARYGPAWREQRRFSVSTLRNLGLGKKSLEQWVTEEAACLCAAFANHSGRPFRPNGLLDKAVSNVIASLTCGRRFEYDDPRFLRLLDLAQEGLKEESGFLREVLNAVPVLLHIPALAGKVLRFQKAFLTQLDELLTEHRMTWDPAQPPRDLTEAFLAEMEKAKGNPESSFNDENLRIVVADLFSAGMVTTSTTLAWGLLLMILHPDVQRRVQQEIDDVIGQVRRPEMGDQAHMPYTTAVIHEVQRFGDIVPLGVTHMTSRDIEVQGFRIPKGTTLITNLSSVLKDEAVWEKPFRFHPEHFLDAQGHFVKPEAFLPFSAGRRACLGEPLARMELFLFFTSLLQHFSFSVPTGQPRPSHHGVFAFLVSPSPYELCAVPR
Assay: Inhibition of CYP2D6 at 50 uM
Format: ADME

A selection of reference data follows.
CC1(C)[C@H]2CC=C(CN3CCC(Nc4nc(-c5ccccc5)cs4)CC3)[C@@H]1C2	< 20%
CC1(C)[C@H]2CC=C(CN3CCC(Nc4nc(-c5cc(C(F)(F)F)cc(C(F)(F)F)c5)cs4)CC3)[C@@H]1C2	< 20%

Turning to the following molecule.
Task: Which inhibition at 50 µM is reported with UniProtKB P10635 for this entry: CC1(C)[C@H]2CC=C(CN3CCC(Nc4nc(-c5ccc(Cl)c(Cl)c5)cs4)CC3)[C@@H]1C2 ?
Result: < 20%
